Recorded values, source the Immune Epitope Database (IEDB).

Catalogue of pKd values
system: HLA-B*08:01
test-name: IEDB peptide-MHC binding, purified MHC/competitive/radioactivity; filed as Kd, often an IC50 or EC50 that approximates it; bounds were set here for any values at or beyond the usual limits of such assays
test-parameters: source organism: Dengue virus 1 Brazil/97-11/1997
pKd: −log10 of the molar value.

| entry-sequence | pKd |
| --- | --- |
| KMRPMFAVGL | 5.34 |
| GLNSRSTSL | 7.83 |
| IMAIGIVSIL | 6.35 |

====

Catalogue of pKd values
system: HLA-A*30:01
test-name: IEDB peptide-MHC binding, purified MHC/competitive/radioactivity; filed as Kd, often an IC50 or EC50 that approximates it; bounds were set here for any values at or beyond the usual limits of such assays
test-parameters: source organism: Dengue virus 1 Brazil/97-11/1997
pKd: −log10 of the molar value.
result-type: pKd

| entry-sequence | value-modifier | reported-measurement |
| --- | --- | --- |
| IWGRKSWPLN | = | 5.69 |
| MATFKMRPMF | = | 5.75 |
| TMLLMLLPTA | = | 4.91 |
| RAKRGTAQI | = | 6.86 |
| TTTDSRCPTQ | ≤ | 4.29 |

====

system: HLA-B*48:01
test-name: IEDB peptide-MHC binding, purified MHC/direct/fluorescence; filed as Kd, often an IC50 or EC50 that approximates it; bounds were set here for any values at or beyond the usual limits of such assays
test-parameters: source organism: Mammarenavirus juninense

| entry-sequence | Kd |
| --- | --- |
| QLAKRSEIL | ≥ 20 µM |

====

system: HLA-A*68:02
test-name: IEDB peptide-MHC binding, purified MHC/direct/fluorescence; filed as Kd, often an IC50 or EC50 that approximates it; bounds were set here for any values at or beyond the usual limits of such assays
test-parameters: source organism: Vibrio vulnificus

| entry-sequence | Kd |
| --- | --- |
| PHPVVVRTL | ≥ 20 µM |

====

system: HLA-A*11:01
test-name: IEDB peptide-MHC binding, purified MHC/competitive/fluorescence; bounds were set here for any values at or beyond the usual limits of such assays
test-parameters: source organism: Sudan ebolavirus
pIC50: −log10 of the molar value.

| entry-sequence | system | pIC50 |
| --- | --- | --- |
| GILGSLGLR | HLA-A*11:01 | 5.42 |
| PPDGVRGFP | HLA-A*11:01 | 4.20 |
| CPGDYAFHK | HLA-A*11:01 | 4.26 |

====

system: HLA-A*11:01
test-name: IEDB peptide-MHC binding, purified MHC/direct/fluorescence; filed as Kd, often an IC50 or EC50 that approximates it; bounds were set here for any values at or beyond the usual limits of such assays
test-parameters: source organism: Influenza A virus (A/duck/Mongolia/47/2001(H7N1))
pKd: −log10 of the molar value.

| entry-sequence | pKd |
| --- | --- |
| NESGRLIDF | ≤ 4.70 |

====

system: HLA-A*26:01
test-name: IEDB peptide-MHC binding, purified MHC/competitive/radioactivity; filed as Kd, often an IC50 or EC50 that approximates it; bounds were set here for any values at or beyond the usual limits of such assays
test-parameters: source organism: Dengue virus 2 Jamaica/1409/1983

| entry-sequence | system | unit-of-measurement | Kd |
| --- | --- | --- | --- |
| DVFCDSKLM | HLA-A*26:01 | nM | 1880 |

====

system: HLA-B*08:02
test-name: IEDB peptide-MHC binding, purified MHC/direct/fluorescence; filed as Kd, often an IC50 or EC50 that approximates it; bounds were set here for any values at or beyond the usual limits of such assays
test-parameters: source organism: Vibrio vulnificus YJ016
pKd: −log10 of the molar value.

| entry-sequence | pKd |
| --- | --- |
| WHQARFEEL | ≤ 4.70 |

====

system: HLA-A*02:01
test-name: IEDB peptide-MHC binding, purified MHC/direct/fluorescence; filed as Kd, often an IC50 or EC50 that approximates it; bounds were set here for any values at or beyond the usual limits of such assays
test-parameters: source organism: Burkholderia mallei ATCC 23344
result-type: Kd

| entry-sequence | system | result-type | reported-measurement |
| --- | --- | --- | --- |
| NVMDPMHGA | HLA-A*02:01 | Kd | ≥ 20 µM |

====

system: HLA-A*26:02
test-name: IEDB peptide-MHC binding, purified MHC/direct/fluorescence; filed as Kd, often an IC50 or EC50 that approximates it; bounds were set here for any values at or beyond the usual limits of such assays
test-parameters: source organism: Variola virus
result-type: Kd

| entry-sequence | system | reported-measurement |
| --- | --- | --- |
| ATNDGLIKK | HLA-A*26:02 | ≥ 20 µM |

====

system: HLA-A*26:01
test-name: IEDB peptide-MHC binding, purified MHC/competitive/fluorescence; filed as Kd, often an IC50 or EC50 that approximates it; bounds were set here for any values at or beyond the usual limits of such assays
test-parameters: source organism: Escherichia coli HS
pKd: −log10 of the molar value.
result-type: pKd

| entry-sequence | result-type | reported-measurement |
| --- | --- | --- |
| ISLWGSLLK | pKd | ≤ 4.70 |

====

system: HLA-A*02:06
test-name: IEDB peptide-MHC binding, purified MHC/direct/fluorescence; filed as Kd, often an IC50 or EC50 that approximates it; bounds were set here for any values at or beyond the usual limits of such assays
test-parameters: source organism: Entamoeba histolytica HM-1:IMSS

| entry-sequence | Kd |
| --- | --- |
| IESNPLFPV | 34 nM |

====

system: HLA-B*08:01
test-name: IEDB peptide-MHC binding, purified MHC/direct/fluorescence; filed as Kd, often an IC50 or EC50 that approximates it; bounds were set here for any values at or beyond the usual limits of such assays
test-parameters: source organism: Salmonella enterica
pKd: −log10 of the molar value.

| entry-sequence | pKd |
| --- | --- |
| RKAGVNQAK | ≤ 4.70 |

====

system: HLA-A*31:01
test-name: IEDB peptide-MHC binding, purified MHC/direct/fluorescence; filed as Kd, often an IC50 or EC50 that approximates it; bounds were set here for any values at or beyond the usual limits of such assays
test-parameters: source organism: Influenza A virus (A/duck/Mongolia/47/2001(H7N1))
pKd: −log10 of the molar value.
result-type: pKd

| entry-sequence | system | reported-measurement |
| --- | --- | --- |
| NESGRLIDF | HLA-A*31:01 | ≤ 4.70 |

====

system: HLA-A*03:01
test-name: IEDB peptide-MHC binding, purified MHC/direct/fluorescence; filed as Kd, often an IC50 or EC50 that approximates it; bounds were set here for any values at or beyond the usual limits of such assays
test-parameters: source organism: Influenza A virus (A/ferret/Maryland/P10-UMD/2008(H9N2))
result-type: Kd

| entry-sequence | result-type | reported-measurement |
| --- | --- | --- |
| NMDKAVKLY | Kd | ≥ 20 µM |

====

Catalogue of pKd values
system: HLA-B*46:01
test-name: IEDB peptide-MHC binding, purified MHC/competitive/fluorescence; filed as Kd, often an IC50 or EC50 that approximates it; bounds were set here for any values at or beyond the usual limits of such assays
test-parameters: source organism: Homo sapiens
pKd: −log10 of the molar value.

| entry-sequence | system | pKd |
| --- | --- | --- |
| VSMDQLASY | HLA-B*46:01 | 7.50 |
| RTDNGGWAH | HLA-B*46:01 | ≤ 4.70 |
| GTEYRLTLY | HLA-B*46:01 | ≤ 4.70 |

====

system: HLA-B*58:01
test-name: IEDB peptide-MHC binding, purified MHC/competitive/fluorescence; filed as Kd, often an IC50 or EC50 that approximates it; bounds were set here for any values at or beyond the usual limits of such assays
test-parameters: source organism: Salmonella enterica subsp. enterica serovar Typhi
result-type: Kd (µM)

| entry-sequence | unit-of-measurement | reported-measurement |
| --- | --- | --- |
| VTIGNAYIY | µM | 0.0625 |

====

Catalogue of Kd values
system: HLA-B*27:05
test-name: IEDB peptide-MHC binding, purified MHC/direct/fluorescence; filed as Kd, often an IC50 or EC50 that approximates it; bounds were set here for any values at or beyond the usual limits of such assays
test-parameters: source organism: Salmonella enterica subsp. enterica serovar Typhimurium

| entry-sequence | system | value-modifier | Kd [nM] |
| --- | --- | --- | --- |
| YSDIFNNVL | HLA-B*27:05 | ≥ | 20000 |
| RKAGVNQAK | HLA-B*27:05 | = | 224 |

====

system: HLA-A*31:01
test-name: IEDB peptide-MHC binding, purified MHC/competitive/fluorescence; filed as Kd, often an IC50 or EC50 that approximates it; bounds were set here for any values at or beyond the usual limits of such assays
test-parameters: source organism: Bacillus anthracis str. Tsiankovskii-I
pKd: −log10 of the molar value.
result-type: pKd

| entry-sequence | reported-measurement |
| --- | --- |
| IISYFIFNR | 7.65 |
